# normalized RNA/DNA level without ligand (log10) values compiled below
B1: library; a variant is named by its letters at N, in order (parent)
chain: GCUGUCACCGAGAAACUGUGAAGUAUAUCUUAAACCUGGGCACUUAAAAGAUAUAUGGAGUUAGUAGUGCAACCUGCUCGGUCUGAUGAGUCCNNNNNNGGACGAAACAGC

- Variants of: B1
- ASSAY_EXPLANATION: normalized RNA/DNA level without ligand (relative to sTRSVctl = 100) (log10 (% of sTRSVctl)); HEK293T; ligand: cyclic di-GMP (c-di-GMP-II aptamer); higher = less ribozyme self-cleavage, higher mRNA level
- CONDITIONS_USED: reporter: mCherry (pCS4076), ligand present: no
Respond using a number only.

[
  {
    "ITEM_SEQUENCE": "GCUGUCACCGAGAAACUGUGAAGUAUAUCUUAAACCUGGGCACUUAAAAGAUAUAUGGAGUUAGUAGUGCAACCUGCUCGGUCUGAUGAGUCCAGAGCGGGACGAAACAGC [AGAGCG]",
    "MEASURED_VALUE": 1.81
  },
  {
    "ITEM_SEQUENCE": "GCUGUCACCGAGAAACUGUGAAGUAUAUCUUAAACCUGGGCACUUAAAAGAUAUAUGGAGUUAGUAGUGCAACCUGCUCGGUCUGAUGAGUCCGUGGCUGGACGAAACAGC [GUGGCU]",
    "MEASURED_VALUE": 1.76
  },
  {
    "ITEM_SEQUENCE": "GCUGUCACCGAGAAACUGUGAAGUAUAUCUUAAACCUGGGCACUUAAAAGAUAUAUGGAGUUAGUAGUGCAACCUGCUCGGUCUGAUGAGUCCAUCGGCGGACGAAACAGC [AUCGGC]",
    "MEASURED_VALUE": 1.78
  },
  {
    "ITEM_SEQUENCE": "GCUGUCACCGAGAAACUGUGAAGUAUAUCUUAAACCUGGGCACUUAAAAGAUAUAUGGAGUUAGUAGUGCAACCUGCUCGGUCUGAUGAGUCCCCUCUUGGACGAAACAGC [CCUCUU]",
    "MEASURED_VALUE": 1.63
  },
  {
    "ITEM_SEQUENCE": "GCUGUCACCGAGAAACUGUGAAGUAUAUCUUAAACCUGGGCACUUAAAAGAUAUAUGGAGUUAGUAGUGCAACCUGCUCGGUCUGAUGAGUCCACGCAUGGACGAAACAGC [ACGCAU]",
    "MEASURED_VALUE": 1.42
  },
  {
    "ITEM_SEQUENCE": "GCUGUCACCGAGAAACUGUGAAGUAUAUCUUAAACCUGGGCACUUAAAAGAUAUAUGGAGUUAGUAGUGCAACCUGCUCGGUCUGAUGAGUCCGGUGACGGACGAAACAGC [GGUGAC]",
    "MEASURED_VALUE": 1.75
  },
  {
    "ITEM_SEQUENCE": "GCUGUCACCGAGAAACUGUGAAGUAUAUCUUAAACCUGGGCACUUAAAAGAUAUAUGGAGUUAGUAGUGCAACCUGCUCGGUCUGAUGAGUCCCUUCACGGACGAAACAGC [CUUCAC]",
    "MEASURED_VALUE": 1.73
  },
  {
    "ITEM_SEQUENCE": "GCUGUCACCGAGAAACUGUGAAGUAUAUCUUAAACCUGGGCACUUAAAAGAUAUAUGGAGUUAGUAGUGCAACCUGCUCGGUCUGAUGAGUCCGACAGCGGACGAAACAGC [GACAGC]",
    "MEASURED_VALUE": 1.74
  },
  {
    "ITEM_SEQUENCE": "GCUGUCACCGAGAAACUGUGAAGUAUAUCUUAAACCUGGGCACUUAAAAGAUAUAUGGAGUUAGUAGUGCAACCUGCUCGGUCUGAUGAGUCCGCUGGCGGACGAAACAGC [GCUGGC]",
    "MEASURED_VALUE": 1.57
  },
  {
    "ITEM_SEQUENCE": "GCUGUCACCGAGAAACUGUGAAGUAUAUCUUAAACCUGGGCACUUAAAAGAUAUAUGGAGUUAGUAGUGCAACCUGCUCGGUCUGAUGAGUCCGAUGCGGGACGAAACAGC [GAUGCG]",
    "MEASURED_VALUE": 1.82
  }
]

Ask | # lookup: normalized RNA/DNA level without ligand (log10) of GCUGUCACCGAGAAACUGUGAAGUAUAUCUUAAACCUGGGCACUUAAAAGAUAUAUGGAGUUAGUAGUGCAACCUGCUCGGUCUGAUGAGUCCUUCCUAGGACGAAACAGC [UUCCUA]
Reply | 1.68

Ask | State the recorded normalized RNA/DNA level without ligand (log10) for this entry: GCUGUCACCGAGAAACUGUGAAGUAUAUCUUAAACCUGGGCACUUAAAAGAUAUAUGGAGUUAGUAGUGCAACCUGCUCGGUCUGAUGAGUCCGAAAAGGGACGAAACAGC [GAAAAG]
Reply | 1.58

Ask | Dear colleague, I am looking for the recorded normalized RNA/DNA level without ligand (log10) of the following variant: GCUGUCACCGAGAAACUGUGAAGUAUAUCUUAAACCUGGGCACUUAAAAGAUAUAUGGAGUUAGUAGUGCAACCUGCUCGGUCUGAUGAGUCCUCGUUUGGACGAAACAGC [UCGUUU]
Reply | 1.68

Ask | What does the record list as normalized RNA/DNA level without ligand (log10) for GCUGUCACCGAGAAACUGUGAAGUAUAUCUUAAACCUGGGCACUUAAAAGAUAUAUGGAGUUAGUAGUGCAACCUGCUCGGUCUGAUGAGUCCCCAAAAGGACGAAACAGC [CCAAAA] ?
Reply | 1.35

Ask | Returns the measured normalized RNA/DNA level without ligand (log10) for the input variant. Input: GCUGUCACCGAGAAACUGUGAAGUAUAUCUUAAACCUGGGCACUUAAAAGAUAUAUGGAGUUAGUAGUGCAACCUGCUCGGUCUGAUGAGUCCCCAACUGGACGAAACAGC [CCAACU]
Reply | 1.56

Ask | Please look up its normalized RNA/DNA level without ligand (log10): GCUGUCACCGAGAAACUGUGAAGUAUAUCUUAAACCUGGGCACUUAAAAGAUAUAUGGAGUUAGUAGUGCAACCUGCUCGGUCUGAUGAGUCCGCUCGAGGACGAAACAGC [GCUCGA]
Reply | 1.57

Ask | Data request, read-out normalized RNA/DNA level without ligand (log10), for GCUGUCACCGAGAAACUGUGAAGUAUAUCUUAAACCUGGGCACUUAAAAGAUAUAUGGAGUUAGUAGUGCAACCUGCUCGGUCUGAUGAGUCCCGCGAAGGACGAAACAGC [CGCGAA]
Reply | 1.23

Ask | Record request: normalized RNA/DNA level without ligand (log10) value, item GCUGUCACCGAGAAACUGUGAAGUAUAUCUUAAACCUGGGCACUUAAAAGAUAUAUGGAGUUAGUAGUGCAACCUGCUCGGUCUGAUGAGUCCUCUUUAGGACGAAACAGC [UCUUUA]
Reply | 1.65

Ask | Return reported normalized RNA/DNA level without ligand (log10); argument: GCUGUCACCGAGAAACUGUGAAGUAUAUCUUAAACCUGGGCACUUAAAAGAUAUAUGGAGUUAGUAGUGCAACCUGCUCGGUCUGAUGAGUCCGGCUCGGGACGAAACAGC [GGCUCG]
Reply | 1.78

Ask | # query: normalized RNA/DNA level without ligand (log10) of entry GCUGUCACCGAGAAACUGUGAAGUAUAUCUUAAACCUGGGCACUUAAAAGAUAUAUGGAGUUAGUAGUGCAACCUGCUCGGUCUGAUGAGUCCGCCCAGGGACGAAACAGC [GCCCAG]
Reply | 1.9

Ask | Return reported normalized RNA/DNA level without ligand (log10); argument: GCUGUCACCGAGAAACUGUGAAGUAUAUCUUAAACCUGGGCACUUAAAAGAUAUAUGGAGUUAGUAGUGCAACCUGCUCGGUCUGAUGAGUCCAGCUCCGGACGAAACAGC [AGCUCC]
Reply | 1.81

Ask | Returns the measured normalized RNA/DNA level without ligand (log10) for the input variant. Input: GCUGUCACCGAGAAACUGUGAAGUAUAUCUUAAACCUGGGCACUUAAAAGAUAUAUGGAGUUAGUAGUGCAACCUGCUCGGUCUGAUGAGUCCGUCGGAGGACGAAACAGC [GUCGGA]
Reply | 1.51

Ask | Which normalized RNA/DNA level without ligand (log10) reading was recorded for the variant GCUGUCACCGAGAAACUGUGAAGUAUAUCUUAAACCUGGGCACUUAAAAGAUAUAUGGAGUUAGUAGUGCAACCUGCUCGGUCUGAUGAGUCCCUGGAUGGACGAAACAGC [CUGGAU] ?
Reply | 1.53

Ask | Recorded normalized RNA/DNA level without ligand (log10) for GCUGUCACCGAGAAACUGUGAAGUAUAUCUUAAACCUGGGCACUUAAAAGAUAUAUGGAGUUAGUAGUGCAACCUGCUCGGUCUGAUGAGUCCGCACAUGGACGAAACAGC [GCACAU] , please?
Reply | 1.47
